Value source: patent EP0308983A2

Documented T₂ value across a set of molecules
- assay comment: Paramagnetic relaxation properties in human plasma at 37°C
- Format: physicochemical
- experimental context: 93 µM final concentration, 37°C
readout kind: T₂ value (ms)

{"columns": ["entry smiles", "readout kind", "unit of measure", "value observed"],
 "data": [
  ["O.O.O=C(O)[C@@H]1CCCN1.O=C(O)[C@@H]1CCCN1.[Cl-].[Cl-].[Mn+2]", "T₂ value", "ms", 202],
  ["N[C@@H](CO)C(=O)O.N[C@@H](CO)C(=O)O.O.O.[Cl-].[Cl-].[Mn+2]", "T₂ value", "ms", 189],
  ["C[NH2+]CC(=O)[O-].C[NH2+]CC(=O)[O-].O.O.[Cl-].[Cl-].[Mn+2]", "T₂ value", "ms", 194],
  ["O.O.O=C(O)[C@@H]1C[C@@H](O)CN1.O=C(O)[C@@H]1C[C@@H](O)CN1.[Cl-].[Cl-].[Mn+2]", "T₂ value", "ms", 189]
]}
